# system_under_test: UniProtKB P06766
# test_method_notes: Binding affinity to rat DNA polymerase beta with methyl-lysine modification at 72 assessed as inhibition of dRP excision in presence of 32P-end labelled duplex DNA at 50 uM by SDS PAGE
Activity calls are given as the source filed them. The rule behind the calls is not given here.

| molecule | inhibition |
| --- | --- |
| CCCCCCCC[C@H]1O[C@H]1CCCCCCCC(=O)O (racemic) | Active |
| O=C(O)c1ccc(O)c(O)c1 | 50% |
| CC[C@H](/C=C/[C@@H](C)[C@H]1CC[C@H]2[C@@H]3CC=C4C[C@@H](O)CC[C@]4(C)[C@H]3CC[C@]12C)C(C)C | Active |
| CC[C@H](CC[C@@H](C)[C@H]1CC[C@H]2[C@@H]3CCC4C[C@@H](OC(=O)c5ccccc5)CC[C@]4(C)[C@H]3CC[C@]12C)C(C)C (some centres undefined) | Active |

* * *

# system_under_test: DNA polymerase beta (Rattus norvegicus)
# test_method_notes: Binding affinity to rat DNA polymerase beta with homo-lysine modification at 72 assessed as inhibition of dRP excision in presence of 32P-end labelled duplex DNA at 50 uM by SDS PAGE
Active and inactive are the calls of the source. No cut-off for these calls is given here.
assay_endpoint: inhibition

| compound | assay_endpoint | result |
| --- | --- | --- |
| CC[C@H](/C=C/[C@@H](C)[C@H]1CC[C@H]2[C@@H]3CC=C4C[C@@H](O)CC[C@]4(C)[C@H]3CC[C@]12C)C(C)C | inhibition | Active |
| O=C(O)c1ccc(O)c(O)c1 | inhibition | 25% |
| CC[C@H](CC[C@@H](C)[C@H]1CC[C@H]2[C@@H]3CCC4C[C@@H](OC(=O)c5ccccc5)CC[C@]4(C)[C@H]3CC[C@]12C)C(C)C (some centres undefined) | inhibition | Active |

* * *

# system_under_test: DNA polymerase beta (Rattus norvegicus) (UniProt P06766)
# test_method_notes: Binding affinity to wild type rat DNA polymerase beta assessed as inhibition of dRP excision in presence of 32P-end labelled duplex DNA at 50 uM by SDS PAGE analysis
Active and inactive are the calls of the source. No cut-off for these calls is given here.
assay_endpoint: inhibition

| compound | system_under_test | result |
| --- | --- | --- |
| O=C(O)c1ccc(O)c(O)c1 | DNA polymerase beta (Rattus norvegicus) (UniProt P06766) | 50% |
| CCCCCCCC[C@H]1O[C@H]1CCCCCCCC(=O)O (racemic) | DNA polymerase beta (Rattus norvegicus) (UniProt P06766) | Active |
| CC[C@H](CC[C@@H](C)[C@H]1CC[C@H]2[C@@H]3CCC4C[C@@H](OC(=O)c5ccccc5)CC[C@]4(C)[C@H]3CC[C@]12C)C(C)C (some centres undefined) | DNA polymerase beta (Rattus norvegicus) (UniProt P06766) | Active |
| CC[C@H](/C=C/[C@@H](C)[C@H]1CC[C@H]2[C@@H]3CC=C4C[C@@H](O)CC[C@]4(C)[C@H]3CC[C@]12C)C(C)C | DNA polymerase beta (Rattus norvegicus) (UniProt P06766) | Active |
